Could you please report measured pIC50 for the items listed next?
Target: recombinant human Nav1.7 (Homo sapiens)
Sequence (Q15858 whole entry): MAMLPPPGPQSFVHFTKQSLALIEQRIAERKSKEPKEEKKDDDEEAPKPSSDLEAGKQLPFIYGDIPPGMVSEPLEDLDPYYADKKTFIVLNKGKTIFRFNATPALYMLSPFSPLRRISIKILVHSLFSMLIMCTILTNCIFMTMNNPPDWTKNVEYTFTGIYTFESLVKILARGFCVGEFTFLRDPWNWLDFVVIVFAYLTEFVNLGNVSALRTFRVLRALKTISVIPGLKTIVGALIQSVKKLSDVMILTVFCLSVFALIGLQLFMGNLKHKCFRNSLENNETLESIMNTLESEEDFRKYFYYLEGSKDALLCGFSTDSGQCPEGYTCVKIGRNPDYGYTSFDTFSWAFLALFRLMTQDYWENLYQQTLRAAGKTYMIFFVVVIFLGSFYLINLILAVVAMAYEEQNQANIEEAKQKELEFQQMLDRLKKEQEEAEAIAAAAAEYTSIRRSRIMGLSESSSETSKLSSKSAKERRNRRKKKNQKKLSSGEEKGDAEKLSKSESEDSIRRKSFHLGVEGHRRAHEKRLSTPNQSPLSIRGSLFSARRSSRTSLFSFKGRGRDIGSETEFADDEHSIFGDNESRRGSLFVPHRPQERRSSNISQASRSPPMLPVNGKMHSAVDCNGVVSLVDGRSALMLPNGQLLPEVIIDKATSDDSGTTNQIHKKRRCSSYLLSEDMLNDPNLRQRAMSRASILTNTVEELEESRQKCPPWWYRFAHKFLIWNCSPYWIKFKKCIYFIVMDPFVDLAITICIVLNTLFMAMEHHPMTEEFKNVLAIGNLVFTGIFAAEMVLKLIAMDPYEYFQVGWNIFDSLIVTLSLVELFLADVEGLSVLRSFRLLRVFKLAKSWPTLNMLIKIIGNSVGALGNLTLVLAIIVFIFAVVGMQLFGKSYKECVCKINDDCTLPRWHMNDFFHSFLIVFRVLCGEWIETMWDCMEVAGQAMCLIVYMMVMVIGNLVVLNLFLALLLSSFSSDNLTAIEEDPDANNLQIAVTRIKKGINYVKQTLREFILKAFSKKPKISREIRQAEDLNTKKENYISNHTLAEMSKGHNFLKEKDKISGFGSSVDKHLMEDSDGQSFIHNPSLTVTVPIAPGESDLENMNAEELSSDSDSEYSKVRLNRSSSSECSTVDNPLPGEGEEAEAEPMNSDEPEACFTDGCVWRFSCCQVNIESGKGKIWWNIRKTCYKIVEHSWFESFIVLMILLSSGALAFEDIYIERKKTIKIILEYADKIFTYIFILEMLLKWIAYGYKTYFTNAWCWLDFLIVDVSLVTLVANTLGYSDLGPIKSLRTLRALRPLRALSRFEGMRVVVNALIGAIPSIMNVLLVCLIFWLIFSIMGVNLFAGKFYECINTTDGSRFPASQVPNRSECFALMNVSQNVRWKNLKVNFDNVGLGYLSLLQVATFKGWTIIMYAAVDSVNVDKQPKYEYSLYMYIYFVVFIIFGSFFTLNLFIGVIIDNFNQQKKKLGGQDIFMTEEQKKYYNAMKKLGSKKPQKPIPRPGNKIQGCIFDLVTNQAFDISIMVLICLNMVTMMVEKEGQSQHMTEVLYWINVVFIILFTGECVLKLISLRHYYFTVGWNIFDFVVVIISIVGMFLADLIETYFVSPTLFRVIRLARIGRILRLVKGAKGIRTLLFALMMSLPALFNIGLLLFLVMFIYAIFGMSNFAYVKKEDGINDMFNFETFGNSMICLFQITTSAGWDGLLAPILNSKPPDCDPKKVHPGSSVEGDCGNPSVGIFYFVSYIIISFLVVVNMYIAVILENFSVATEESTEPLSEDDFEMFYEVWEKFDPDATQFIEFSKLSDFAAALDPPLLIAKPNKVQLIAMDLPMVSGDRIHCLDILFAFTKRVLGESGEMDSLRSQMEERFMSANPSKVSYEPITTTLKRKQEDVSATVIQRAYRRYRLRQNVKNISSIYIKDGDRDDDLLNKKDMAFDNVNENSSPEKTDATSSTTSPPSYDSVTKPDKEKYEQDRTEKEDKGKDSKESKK
Test: FRET-based membrane potential assay, Nav1.7
Conditions: HEK293 cells expressing recombinant human Nav1.7; veratridine + scorpion venom depolarization
The value called pIC50 is obtained by taking minus log10 of the concentration in mol/L.

Consider Cc1noc(C)c1CC(=O)N1C[C@@H]2CN(c3cccc4c3cnn4-c3ccccc3F)C(=O)[C@@H]2C1 [Example 33] . Its measured pIC50 is 4.87

Short answer for O=C1[C@H]2CN(C(=O)n3ccnc3)C[C@H]2CN1c1cccc2c1cnn2-c1ccccc1F (relative stereo) [Example 12] : pIC50 was 5.51

What the record says about CN(C)C(=O)N1C[C@H]2CN(c3cccc4c3cnn4-c3ccccc3F)C(=O)[C@H]2C1 (relative stereo) [Example 15] : pIC50 is 5.12

Notebook: CC(C)(O)C(=O)N1CC[C@@H]2CN(c3cccc4c3cnn4-c3ccccc3F)C(=O)[C@@H]21 (relative stereo) [Example 4] , pIC50 read as 5.71

The compound identified as CC(=O)N1CC[C@@H]2CN(c3cccc4c3cnn4-c3ccccc3F)C(=O)[C@@H]21 (relative stereo) [Example 6] registered its pIC50 at 4.88

Lab note: CC(C)CS(=O)(=O)N1C[C@@H]2CN(c3cccc4c3cnn4-c3ccccc3F)C(=O)[C@@H]2C1 [Example 21] gave pIC50 of 6.04

Field pIC50 (entry C[C@H](O)CC(=O)N1C[C@H]2CN(c3cccc4c3cnn4-c3ccccc3F)C(=O)[C@H]2C1 [Example 34] ) reads 5.00

Reported pIC50 of O=C1[C@@H]2CN(S(=O)(=O)C3CC3)C[C@@H]2CN1c1cccc2c1cnn2-c1ccccc1F [Example 28] : 5.42

Sample O=C(NCc1cnco1)N1C[C@H]2CN(c3cccc4c3cnn4-c3ccccc3F)C(=O)[C@H]2C1 (relative stereo) [Example 13] ; pIC50 observed: 4.96

Entry under test: O=C(C1CC1(F)F)N1C[C@@H]2CN(c3cccc4c3cnn4-c3ccccc3F)C(=O)[C@@H]2C1 (some centres unmarked) [Example 40] . Its pIC50 was 4.98

Lookup result for CC(C)S(=O)(=O)N1C[C@@H]2CN(c3cccc4c3cnn4-c3ccccc3F)C(=O)[C@@H]2C1 [Example 24] ; measured pIC50: 5.70

Form field pIC50, entry CC(C)(O)C(=O)N1CC[C@H]2CN(c3cccc4c3cnn4-c3ccccc3F)C(=O)[C@H]21 [Example 49] : 6.40

Record CC(=O)N1C[C@@H]2CN(c3cccc4c3cnn4-c3ccccc3F)C(=O)[C@H]2C1 (relative stereo) [Example 17] . Reported pIC50: 5.05

Lab note: measured pIC50 of CC(=O)N1C[C@H]2CN(c3cccc4c3cnn4-c3ccccc3F)C(=O)[C@H]2C1 [Example 46] was 5.45
